Quick reference for residual activity among some compounds
# target under test: EPHA4 (human) (UniProt P54764)
# Sequence (P54764 whole entry, looked up): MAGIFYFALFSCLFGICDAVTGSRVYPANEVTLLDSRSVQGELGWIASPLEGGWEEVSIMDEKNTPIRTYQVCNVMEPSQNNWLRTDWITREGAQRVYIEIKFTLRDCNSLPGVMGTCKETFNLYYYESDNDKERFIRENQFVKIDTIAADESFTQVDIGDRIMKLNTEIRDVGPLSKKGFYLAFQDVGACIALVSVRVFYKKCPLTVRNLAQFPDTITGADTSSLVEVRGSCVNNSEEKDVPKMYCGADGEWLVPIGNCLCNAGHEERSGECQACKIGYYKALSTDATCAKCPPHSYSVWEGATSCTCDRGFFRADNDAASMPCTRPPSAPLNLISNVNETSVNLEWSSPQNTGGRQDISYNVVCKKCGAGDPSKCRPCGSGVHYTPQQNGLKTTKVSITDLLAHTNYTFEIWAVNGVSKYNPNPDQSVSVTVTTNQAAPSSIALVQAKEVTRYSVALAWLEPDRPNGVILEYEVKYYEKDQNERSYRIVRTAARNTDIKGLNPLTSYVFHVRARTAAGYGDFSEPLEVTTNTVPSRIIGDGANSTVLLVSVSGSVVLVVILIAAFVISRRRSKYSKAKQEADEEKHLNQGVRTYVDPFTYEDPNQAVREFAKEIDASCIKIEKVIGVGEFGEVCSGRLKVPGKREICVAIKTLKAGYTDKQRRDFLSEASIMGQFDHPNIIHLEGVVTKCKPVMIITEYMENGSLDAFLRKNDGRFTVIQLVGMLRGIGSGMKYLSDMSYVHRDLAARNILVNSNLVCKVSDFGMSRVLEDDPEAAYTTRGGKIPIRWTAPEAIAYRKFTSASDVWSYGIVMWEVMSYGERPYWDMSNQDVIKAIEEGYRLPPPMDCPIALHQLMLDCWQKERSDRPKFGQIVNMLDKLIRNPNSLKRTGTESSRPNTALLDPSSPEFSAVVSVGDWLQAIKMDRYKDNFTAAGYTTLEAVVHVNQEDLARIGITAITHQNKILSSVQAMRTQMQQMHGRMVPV
# experiment summary: radiometric filter-binding kinase assay, Kinase HotSpot
# condition parameters: compound 0.5 µM; ATP 10 µM

>  <entry smiles>
Cc1ccc(Nc2nccc(N(C)c3ccc4c(C)n(C)nc4c3)n2)cc1S(N)(=O)=O

>  <residual activity (%)>
94.5

$$$$
>  <entry smiles>
Cc1ccc(NC2=CC(=O)c3sc(C)nc3C2=O)cc1

>  <residual activity (%)>
86.5

$$$$
>  <entry smiles>
N#C/C(=C(/N)Sc1ccc(N)cc1)c1ccccc1C(F)(F)F

>  <residual activity (%)>
99.3

$$$$
>  <entry smiles>
CC[n+]1c(/C=C/N(C)c2ccccc2)n(-c2ccccc2)c2ccc(-c3nc4ccccc4s3)cc21

>  <residual activity (%)>
91.9

$$$$
>  <entry smiles>
CCOC(=O)c1c(C)[nH]c(/C=C2\C(=O)Nc3ccccc32)c1C

>  <residual activity (%)>
80.3

$$$$
>  <entry smiles>
CCN(CC)CCNC(=O)c1c(C)[nH]c(/C=C2\C(=O)Nc3ccc(Cl)cc32)c1C

>  <residual activity (%)>
88

$$$$
>  <entry smiles>
Nc1cccc(-c2cc3c(Oc4cccc(O)c4)ncnc3[nH]2)c1

>  <residual activity (%)>
48.3

$$$$
>  <entry smiles>
Oc1cccc(-c2nc(N3CCOCC3)c3oc4ncccc4c3n2)c1

>  <residual activity (%)>
96.4

$$$$
>  <entry smiles>
Nc1ccc2ncnc(NCCc3ccc(Oc4ccccc4)cc3)c2c1

>  <residual activity (%)>
98.5

$$$$
>  <entry smiles>
CCN(CC)CCNC(=O)c1c(C)[nH]c(/C=C2\C(=O)Nc3ccc(F)cc32)c1C

>  <residual activity (%)>
84.5

$$$$
